Biological target: hGYS1 enzyme (recombinant hGYS1/GN1 protein) (Homo sapiens (Human), UniProt P13807)
Sequence (P13807 whole entry): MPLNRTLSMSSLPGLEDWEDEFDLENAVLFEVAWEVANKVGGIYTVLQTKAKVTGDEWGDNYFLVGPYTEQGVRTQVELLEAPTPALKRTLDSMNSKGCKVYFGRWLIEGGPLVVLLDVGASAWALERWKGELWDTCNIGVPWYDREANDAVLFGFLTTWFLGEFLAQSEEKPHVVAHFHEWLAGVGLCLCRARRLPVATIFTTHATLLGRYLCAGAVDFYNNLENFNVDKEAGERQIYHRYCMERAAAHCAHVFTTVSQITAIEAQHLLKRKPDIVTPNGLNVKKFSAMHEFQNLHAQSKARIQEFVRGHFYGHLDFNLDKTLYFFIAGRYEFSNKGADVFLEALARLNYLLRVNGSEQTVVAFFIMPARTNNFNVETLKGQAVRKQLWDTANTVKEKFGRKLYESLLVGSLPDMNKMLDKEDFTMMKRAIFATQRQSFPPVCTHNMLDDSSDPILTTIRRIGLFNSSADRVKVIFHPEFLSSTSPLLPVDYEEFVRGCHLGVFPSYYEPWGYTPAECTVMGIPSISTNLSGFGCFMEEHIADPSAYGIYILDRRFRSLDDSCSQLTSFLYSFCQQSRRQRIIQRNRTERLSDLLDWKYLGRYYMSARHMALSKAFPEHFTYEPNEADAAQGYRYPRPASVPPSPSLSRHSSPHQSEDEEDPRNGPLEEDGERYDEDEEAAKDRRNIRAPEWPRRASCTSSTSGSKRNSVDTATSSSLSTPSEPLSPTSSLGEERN
Sequence (P46976 whole entry partner): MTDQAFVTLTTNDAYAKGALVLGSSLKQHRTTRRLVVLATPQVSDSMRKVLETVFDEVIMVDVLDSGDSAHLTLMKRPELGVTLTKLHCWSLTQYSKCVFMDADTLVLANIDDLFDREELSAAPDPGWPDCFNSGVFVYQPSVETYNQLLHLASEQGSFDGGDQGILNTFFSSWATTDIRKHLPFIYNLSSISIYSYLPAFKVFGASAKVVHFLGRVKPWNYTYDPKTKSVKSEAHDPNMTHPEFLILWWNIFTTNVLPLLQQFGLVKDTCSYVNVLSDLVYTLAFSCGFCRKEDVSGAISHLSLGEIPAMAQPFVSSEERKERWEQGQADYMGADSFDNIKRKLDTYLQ
Assay: GYS1 coupled enzyme assay (PK/LDH)
Details: hGYS1/GN1 50 nM, UDP-Glucose 0.8 mM, G6P 1 mM; geometric mean of at least 2 runs
value-kind: log10 of IC50 (log10 of the value in µM)
Annotation: log10 of IC50, µM basis.

State the recorded log10 of IC50 for every item in the following list.
1. CCN(CC)c1cnnn1CC(=O)N1C[C@H](F)C[C@H]1C(=O)N[C@@H](c1ccccc1)c1ccc(C(C)C)c(F)n1 [Compound 805]
2. Cc1cn(CC(=O)N2C[C@H](F)C[C@H]2C(=O)N[C@@H](c2ccccc2)c2ccc(C(C)C)cn2)c(=O)[nH]c1=O [Compound 249]
3. CC(C)c1ccc([C@@H](NC(=O)[C@@H]2C[C@@H](F)CN2C(=O)Cc2[nH]nnc2C(F)(F)F)c2ccccc2)nc1F [Compound 403]

Result ::
1. -1.92
2. -1.68
3. -2.40

State the recorded log10 of IC50 for every item in the following list.
1. CCN(CC)c1cnn(CC(=O)N2C[C@H](F)C[C@H]2C(=O)N[C@@H](c2ccccc2)c2ccc(C(C)C)cn2)n1 [Compound 278]
2. CC(C)c1ccc([C@@H](NC(=O)[C@@H]2C[C@@H](F)CN2C(=O)Cc2cccn3c(=O)[nH]nc23)c2ccccc2)nc1F [Compound 391]

Result ::
1: -1.96; 2: -2.22

Query :: // returns reported log10 of IC50 for input CC(C)c1ccc([C@@H](NC(=O)[C@@H]2C[C@@H](F)CN2C(=O)Cc2cnoc2)c2ccccc2)cc1 [Compound 230]
Result :: -0.93

Values compiled from patent US11814367B2.
